MEASUREMENT KIND: melting point (°C)

Take a look at these entries with their results.
Cc1cc(-c2cccc(C3=Nc4ccc(Cl)cc4NC(=O)C3)c2)ccn1; 215
Cc1cc(-c2cccc(C3=Nc4ccccc4NC(=O)C3)c2)ccn1; 192
O=C1CC(c2cccc(-c3ccc(C4CC4)nc3)c2)=Nc2cc(OCC3CC3)c(C(F)(F)F)cc2N1; 223
O=C1CC(c2cccc(-c3ccnc(CO)c3)c2)=Nc2cc(C(F)(F)F)c(C(F)(F)F)cc2N1; 209
O=C1CC(c2ccnc(-c3cccnc3)c2)=Nc2cc(OCC(F)(F)F)c(C(F)(F)F)cc2N1; 197

P. Cc1cc(-c2cccc(C3=Nc4cc(C)c(C(F)(F)F)cc4NC(=O)C3)c2)cc(C2CC2)n1
Q. CCCN(C)c1cc2c(cc1C(F)(F)F)NC(=O)CC(c1cccc(-c3ccnc(CO)c3)c1)=N2
R. Cc1cc2c(cc1Cl)NC(=O)CC(c1cccc(-c3ccnc(CN(C)CC(C)C)c3)c1)=N2
Sort the 3 compounds by melting point; largest first, smallest last. # respond with the labels, arranged in the requested order
P, R, Q
(P: 257 °C, R: 151 °C, Q: 97 °C)
